# procedure-text: Clearance in ICR mouse at 1 mg/kg, iv measured upto 24 hrs by LC-MS/MS analysis
# Format: ADME, organism-based
# run-parameters: in vivo
assay-readout: clearance

[[record]]
molecular_string = "COc1ccc(-c2nn([C@@H](C)c3nn(-c4cccnc4)c4cc(Cl)ccc34)c3ncnc(N)c23)cc1F"
assay_readout = "clearance"
obs_value = "20 mL/min/kg"


###

# procedure-text: Half life in ICR mouse at 1 mg/kg, iv measured upto 24 hrs by LC-MS/MS analysis
# Type: ADME, organism-based
# run-parameters: in vivo
assay-readout: half-life

[[record]]
molecular_string = "COc1ccc(-c2nn([C@@H](C)c3nn(-c4cccnc4)c4cc(Cl)ccc34)c3ncnc(N)c23)cc1F"
obs_value = "1.2 h"

